System: Candida albicans
method: In vitro antifungal activity against Candida albicans
Format: functional
conditions: Candida albicans; read-out: MIC
The following molecules are listed with their measured MIC values.
Write down the numeric answer in µg/mL and omit the unit.

As a guide, the following entries are already answered.
Endpoint output: MIC of CC(C)C(=O)C(O)(Cn1cncn1)c1ccc(Cl)cc1Cl (stereo not given) . Value?
100

Could you tell me which MIC is on file for O=C(c1ccc(F)cc1)C(O)(Cn1cncn1)c1ccc(F)cc1 (stereo not given) ?
100

Recorded MIC for `O=C1O[C@H](c2cccc(Cl)c2)[C@@](Cn2cncn2)(c2cccc(Cl)c2)O1` , please?
100

Need MIC, item O=C(c1ccc(Cl)cc1Cl)C(O)(Cn1ccnc1)c1ccc(Cl)cc1 (stereo not given)
25

Returns the measured MIC for the input molecule. Input: O=C(c1ccc(Cl)cc1)C(O)(Cn1cncn1)C1CCCC1 (stereo not given)
100

More entries:
# input molecule: OC(c1ccc(F)cc1)C(O)(Cn1cncn1)c1ccc(Cl)cc1Cl (stereo in doubt; 92) ; wanted: its MIC
50

----------
Tested on: Aspergillus fumigatus
method: In vitro antifungal activity against Aspergillus fumigatus
Assay type: functional
conditions: Aspergillus fumigatus; read-out: MIC
Measured MIC accompanies every entry in the list below.

Solved entries:
Recorded MIC for CC(C)C(=O)C(O)(Cn1cnnc1)c1ccc(Cl)cc1Cl (stereo unspecified) , please?
> 100 µg/mL

Would you kindly share the measured MIC for O=C(c1ccc(Cl)cc1)C(O)(Cn1cnnc1)c1ccc(Cl)cc1 (stereo unspecified) ?
> 100 µg/mL

Quick one: MIC of O=C(c1ccc(F)cc1)C(O)(Cn1cnnc1)c1ccccc1Cl (stereo unspecified) ?
> 100 µg/mL

# input compound: CCC(=O)C(O)(Cn1cncn1)c1ccc(Cl)cc1Cl (stereo unspecified) ; wanted: its MIC
100 µg/mL

More entries:
Reported MIC for `O=C1O[C@H](c2cccc(Cl)c2)[C@@](Cn2cncn2)(c2cccc(Cl)c2)O1` : what is it?
> 100 µg/mL

Return reported MIC; argument: OC(c1ccccc1Cl)C(O)(Cn1ccnc1)c1ccccc1Cl (stereo unspecified)
100 µg/mL

----------
System: Candida albicans
method: In vitro antifungal activity against Candida albicans
Format: functional
conditions: Candida albicans; read-out: MIC
Reported MIC is given for each of the following compounds.
// note: answer is a bare numeric in µg/mL

Return reported MIC; argument: `CCC[C@H]1OC(=O)O[C@]1(Cn1cncn1)c1ccc(Cl)cc1Cl`
100

Kindly review the next compound as well.
Which MIC reading was recorded for the compound O=S1O[C@H](c2ccc(Cl)cc2)[C@@](Cn2cncn2)(c2ccc(Cl)cc2Cl)O1 (stereo not given in full) ?
50

----------
Tested on: Candida albicans
method: In vitro antifungal activity against Candida albicans
Format: functional
conditions: Candida albicans; read-out: MIC
measured.metric: MIC

Record excerpt, results attached:
For CC(C)CC(O)(Cn1cncn1)C(=O)c1ccc(Cl)cc1 (stereo not drawn) , what is its reported MIC?
> 100 µg/mL

Need MIC, item OC(c1cccc(Cl)c1)C(O)(Cn1cncn1)c1cccc(Cl)c1 (stereo not drawn)
> 100 µg/mL

What does the data say about its MIC? Entry: O=C(c1ccccc1Cl)C(O)(Cn1cncn1)c1ccc(F)cc1 (stereo not drawn)
100 µg/mL

Consider the compound shown here: OC(c1ccc(Cl)cc1Cl)C(O)(Cn1cncn1)c1ccc(Cl)cc1Cl (stereo not drawn) What is its recorded MIC?
100 µg/mL

Name the reported MIC value associated with the compound O=C(c1ccc(F)cc1)C(O)(Cn1ccnc1)c1ccc(Cl)cc1Cl (stereo not drawn)
> 100 µg/mL

New cases:
// returns reported MIC for input CC(C)C(O)(Cn1cncn1)C(=O)c1ccc(Cl)cc1 (stereo not drawn)
> 100 µg/mL

Item CC(O)(c1ccc(Cl)cc1)C(O)(Cn1ccnc1)c1ccc(F)cc1 (stereo not drawn) has what recorded MIC?
> 100 µg/mL
